For each record, write down the corresponding growth.
Tested on: NCI-H226 lung
Assay explanation: NCI-60 one-dose screen, 48 h (100 = growth as untreated, 0 = no growth, -100 = all killed)
Protocol conditions: 10 µM unless noted
Procedure: Growth inhibition of the NCI-H226 human Non-Small Cell Lung tumor cell line is measured as a screen for anti-cancer activity. Cells are grown in 96 well plates and exposed to the test compound for 48 hours. Compounds are tested at a single concentration, which is 10^-5 M for most compounds. The reported endpoint is percent growth (GI% or GIPRCNT), where numbers from 0 - 100% represent growth inhibition, and numbers from -100% - 0 represent cell death. […]
The panel holds about 83,000 compounds, 20% with a hit somewhere; the sample as a whole holds those more often. Calls of active or inactive are those of the source. How the source made its calls: active means growth percent below 10; inactive means the rest.

INSERT INTO results (compound, study_system, experimental_result) VALUES
  ('COc1cc2c(c(OC)c1OC)CCC(c1cccc(C(=O)Nc3ccc([N+](=O)[O-])cc3)c1)O2 (stereo not given)', 'NCI-H226 lung', '48.3% (inactive)'),
  ('COc1ccc(C(c2cc(OC)c(OC)c(OC)c2)n2cncn2)cc1O (stereo not given)', 'NCI-H226 lung', '73.4% (inactive)'),
  ('CCOC(=O)C1=C(c2ccccc2)N=C2N(c3ccccc3)N=C(C(C)=O)N2C1c1ccc(Br)cc1 (stereo not given)', 'NCI-H226 lung', '96.1% (inactive)'),
  ('Cc1nc2c(c(-c3ccccc3)n1)Cc1c(ccc3ccccc13)O2', 'NCI-H226 lung', '82.2% (inactive)');

Would you kindly look at the next entry?
Task: Consider the compound shown here: CCOC(=O)c1c(C)c2c(n1Cc1ccccc1)CSc1cc(C#N)c(=O)[nH]c1-2 What is its recorded growth?
Output: 89.6% [100 µM] (inactive)

###

Test system: COLO 205 colon
Assay explanation: NCI-60 one-dose screen, 48 h
Protocol conditions: 10 µM unless noted
This is part of a sample that, as a whole, favours compounds with a hit. Of some 83,000 tested, about 20% had one in any assay. The source made the active and inactive calls. Rule for the calls: active = growth percent below 10; inactive = the rest.
Bench note: report the call from active, inactive

INSERT INTO results (compound, cat) VALUES
  ('O=C1/C(=C/c2cccc(Br)c2)COc2ccc(O)c(O)c21', 'active'),
  ('COCCNC(=O)Cc1cc(-c2ccc(Cl)cc2)n(-c2ccccc2)c1C', 'inactive'),
  ('COc1cc(CNC(=O)CCCC/C=C/C(C)C)ccc1OCc1cn(-c2cccc([N+](=O)[O-])c2)nn1', 'inactive'),
  ('CCOC(=O)CSc1nc2sc3c(c2c(=O)n1-c1ccccc1)CCCCC3', 'inactive');

As a next step, examine the compound that follows.
Task: Please let me know the test result on file for CCN(CC)CCN1C(=O)c2c(c(C)c3c(oc4cc(OC)ccc43)c2C)C1=O .
Output: inactive

###

System: OVCAR-4 ovarian
Assay explanation: NCI-60 one-dose screen, 48 h (100 = growth as untreated, 0 = no growth, -100 = all killed)
Protocol conditions: 10 µM unless noted
Compounds without any hit were thinned out: in the full panel of roughly 83,000, 20% have a hit.
Readout kind: growth (%)
Numbers only, in %.

INSERT INTO results (test_smiles, study_system, readout_kind, measurement_units, experimental_result) VALUES
  ('C(CCCSC1=NCCN1)CCSC1=NCCN1', 'OVCAR-4 ovarian', 'growth', '%', 98.2),
  ('O=c1cc(-c2nccc3c2[nH]c2ccccc23)c2cc(Cl)ccc2o1', 'OVCAR-4 ovarian', 'growth', '%', 56.6),
  ('COc1cc(-c2c(-c3ccccc3)c[nH]c2C(=O)NCCCO)c(OC)c2c1OCO2', 'OVCAR-4 ovarian', 'growth', '%', 107),
  ('Cn1cc(-c2csc(-c3cn(CCO)c4ccc(F)cc34)n2)c2cccnc21', 'OVCAR-4 ovarian', 'growth', '%', 36);

Turning now to a further compound:
Task: Request the reported growth associated with COc1ccc(/C(C)=C(\c2ccc(Cl)cc2)c2ccc(OCCCN(C)C)cc2)cc1
Output: 90.4

Hello, the source for this data is PubChem BioAssay (NCI), in case you need it.
